procedure details: soluble on expression in E. coli; label from the status in PepcDB or PDB records
measured endpoint: soluble on expression in E. coli

- MAANSTRRPIIAFMSDLGTTDDSVAQCKGLMYSICPDVTVVDVCHSMTPWDVEEGARYIVDLPRFFPEGTVFATTTYPATGTTTRSVAVRIKQAAKGGARGQWAGSGAGFERAEGSYIYIAPNNGLLTTVLEEHGYLEAYEVTSPKVIPEQPEPTFYAREMVAIPSAHLAAGFPLSEVGRPLEDHEIVRFNRPAVEQDGEALVGVVSAIDHPFGNVWTNIHRTDLEKAGIGYGARLRLTLDGVLPFEAPLTPTFADAGEIGNIAIYLNSRGYLSIARNAASLAYPYHLKEGMSARVEAR: soluble
- MGSSHHHHHHSSGLVPRGSSTYRDIVVKKEDGFTQIVLSTRSTEKNALNTEVIKEIVNALNSAAADDSKLVLFSAAGSVFCCGLDFGYFVKHLRNNRNTASLEMVDTIKNFVNTFIQFKKPIVVSVNGPAIGLGASILPLCDLVWANEKAWFQTPYTTFGQSPDGCSSITFPKMMGKASANEMLIAGRKLTAREACAKGLVSQVFLTGTFTQEVMIQIKELASYNPIVLEECKALVRCNIKLELEQANERECEVLRKIWSSAQGIESMLKIPLLGYKAAFPPRKTQNDQRW: soluble

====

procedure details: soluble on expression in E. coli; label from the status in PepcDB or PDB records
measured endpoint: soluble on expression in E. coli

• MKSQLRKKTLEALSALSNEDILQKTERMYKYLFSLPEWQNAGTIAVTISRGLEIPTRPVIEQAWEEGKQVCIPKCHPDTKKMQFRTYQTDDQLETVYAGLLEPVIEKTKEVNPSQIDLMIVPGVCFDVNGFRVGFGGGYYDRYLSEYEGKTVSLLLECQLFAHVPRLPHDIPVHKLITEDRIISCFSLEHHHHHH = soluble
• MSLADERDQLKSIQADIAAKERAVRQKQQQRASLLAQLKKQEEAISEATRKLRETQNTLNQLNKQIDEMNASIAKLEQQKAAQERSLAAQLDAAFRQGEHTGIQLILSGEESQRGQRLQAYFGYLNQARQETIAQLKQTREEVAMQRAELEEKQSEQQTLLYEQRAQQAKLTQALSERKKTLAGLESSIQQGQQQLSELRANESRLRNSIARAEAAAKARAEREAREAQAVRDRQKEATRKGTTYKPTESEKSLMSRTGGLGAPRGQAFWPVRGPTLHRYGEQLQGELRWKGMVIGASEGTEVKAIADGRVILADWLQGYGLVVVVEHGKGDMSLYGYNQSALVSVGSQVRAGQPIALVGSSGGQGRPSLYFEIRRQGQAVNPQPWLGREGHHHHHH = soluble

====

procedure details: soluble on expression in E. coli; label from the status in PepcDB or PDB records
measured endpoint: soluble on expression in E. coli

• MGSDKIHHHHHHMINPQWLHTFAVLVEKGNFTRTAEAIGITQAAVSQHISRLEEEYGTLFLRRPRQLEITPIGENLLTYVKDVECAQKRLQQKLIHDDAEVGDISLITPGSIGLTLFPLLIELQQAFPALNIRHRFAPDSEIVASVLANEHEIGMVTLKPSDPRIHSTHFTEEPLELVVPACHKQNEWVDLQRLGFISHPDGEAMATRLLSRKYPSNPGIQDIPCKGFTNQISLILEPVAKGLGFTVIPQYARKAFERQQDIYVVECGSQVVDTIWLIHRAEWPLSRRAQKAITFLKGKI = not soluble
• MRDPEFWHNKWAANQIGFHLEDVNPLLIRFWSDLAPKRSEKVLVPLCGKSEDLIWLANQHDSVQGVELSQIAVRSFFAEHFYTPTVTRLNAQHELYQFDELTLFTGDFFTAPVESVDLVYDRAALVALPEEMRAEYAQRVLQLLKPGGRILLVSMDYVQTELSGPPFSVPEAEIRTLFMGCEVRRVYQDTSIDPHLNKRTQAGLSRFAEEVWVIEKSE = not soluble

====

procedure details: soluble on expression in E. coli; label from the status in PepcDB or PDB records
measured endpoint: soluble on expression in E. coli

Past entries and their recorded results:
- MGSDKIHHHHHHMTERELEILALLKQDPLIPQQELADRLGISRSAVAGHIMNLTNKGVIRGKGYILAEAKYAMVIGGANMDILGRPASSLRVGDSNPGSVSCSPGGVGRNIAENLARLGSDTRLMTAVGKDAYGQQIVEHCQRAGIDMKPSLQLSDGVTSTYLSVLDGDSDMHVAINDMAILERLGVEQLKSQQEMLKRASLAIIDANLSEAALAYLLSNFADIPLFVDTVSCAKAEKIKPYLGAVHTLKPNLKEAEQLSGISIANYGELPVLANWFHEQGVKRVFLSLGIDGVFYSDGEEQAHIPAIPVEMVNANGAGDAFLAGLAHGFMQGWSTRQSTEFAMAAAVVALSDLATINPNMSEISVNRVIKESLC: not soluble
- MMKKEKELLVAIASQKGGVGKSVFTVLLASVLHYRKDVRVAVVDCDSPQHSIALMRERDMENVMKNDDLKVNLYRQYERIRKPAYPVIKSDPEKGVEDLRRYMDEKGETFDIVLFDLPGTLRSEGVVHTVAAMDYIFVPLKADNIVMQSSLQFTKVLEEELIAKGNCNLKGIRLFWNMVDRRGRKNLYDAWNRVIHRMGLRLLSSHIPNTLRYNKEADPVCKGVFRSTLFPPDPRQEKDSGLPELVEAAFFGRDPGITLL: not soluble
- MKHLFTRIFLFHLLLIGTVQVTAQNKKSGNPILPGFHADPEVLYSHQTKRYYIYPTSDGFPGWGGSYFKVFSSKNLKTWKEETVILEMGKNVSWANGNAWAPCIEEKKIDGKYKYFFYYSANPTTNKGKQIGVAVADSPTGPFTDLGKPIITSSPTGRGQQIDVDVFTDPVSGKSYLYWGNGYMAGAELNDDMLSIKEETTVVLTPKGGTLQTYAYREAPYVIYRKGIYYFFWSVDDTGSPNYHVVYGTAQSPLGPIEVAKEPIVLIQNPKEEIYGPAHNSILQVPGKDKWYIVYHRINKNHLNDGPGWHREVCIDRMEFNPDGTIKQVIPTP: not soluble
- MATENPQTWALWLILSEMASDMQEDKKVAKILVLGPPKAGKTTLCTFLADFMEDGDTLKKGEDSGERERKFEFEFTSVYRPTKGVRIQEFETHEFFTEQEQNELGGTRRLEDSEIQLWDVSGDKKYEDCWPAIKENAEGVILVVNPEEHKGSDLQQWFYEFVEKENIDLSCVMVILNEQGAKKTNHEQISGFEILPKLRGVHHVAHHFGSEAMQVKMEVNSFMASVLKMDQRQMGSGVDHGLGYADEQEDDF: not soluble
- MGTKIIGTGVYLPKNVLTNFDLEKIVDTSDEWITTRTGIKERRIAKEETITYMATQAAKEALREANLSPEELDLIILATLTPQKRFPSTACLVQAQLKAKGVYAFDISAACSGFIYALDIADSFIKSGKAKNVLVIGAEKLSEAVDWEDRSTCVLFGDGAGAVVVTRSEDKSDILATRMYAEGSLEELLHADNCGYIRMKGRELFKVAVRSMEEVCREVLEKAGVKPEEVSLVIPHQANVRIINALAEKLNIPKEKVFVNIQKYGNTSAASIPIALHEAIKEGKVKRGDLILMTAMGGGLTWGAVLLRY: soluble

For every item below, please supply its soluble on expression in E. coli.
1. MKAVGLVVEYNPFHNGHLYHAQTAKLQTGCDTAVAVMSGHFLQRGEPAVVSKWARTKMALQSGVDLVIELPYLYAVQKADIFARGSVSILNELECEALFFGSENGDIKPFLETAQLIDEHKHILNDRIKEELKKGASYPAAAAIAFSSILHTESALDLSKPNNILGYQYVTSILTGGYPMKPYTTARISSDYHDADLPEGENHIASATSIRKAMIGQNLEACLRFLPAASARELAAYRKSFGLWHTPESYFSYLKYSLSTVTARELQQVYEVEEGLEHRIIRSIRKSSSYQEFMELLKTKRYTWTRLQRMNTHILTRTKKQDMQKLLDNDKAPYIRLLGMTKKGQAYLSEKKKALSVPLVSKLSSFSHPALDLDVKASRIYSLPIEEPLRTEFDLQEYG
2. GPLGSSAVTITLKTLQQQTFKIRMEPDETVKVLKEKIEAEKGRDAFPVAGQKLIYAGKILSDDVPIRDYRIDEKNFVVVMVTKTKAGQGTSAPPEASPTAAPESSTSFPPAPTSGMSHPPPAAREDKSPSEESAPTTSPESVSGSVPSSGSSGREEDAASTLVTGSEYETMLTEIMSMGYERERVVAALRASYNNPHRAVEYLLTGIPGSPEPEHGSVQESQVSEQPATEAAGENPLEFLRDQPQFQNMRQVIQQNPALLPALLQQLGQENPQLLQQISRHQEQFIQMLNEPPGELADISDVEGEVGAIGEEAPQMNYIQVTPQEKEAIERLKALGFPESLVIQAYFACEKNENLAANFLLSQNFDDE
3. MSLAQKVKLSTIAETLGLSTATVSLALRDSPLVAAVTRDKIKEQARALGYIYNRRAASLRTSRSGIIGVVVHDIMNPFYGEILKAIEAELDRDKQTFILSNHYDSVEKQRDFIETLLQLGGDGVIMSPAIGTPPQDIQLAEDNGMPAILIARSIEGLDVPIFRGDDAYGISLATNHLIGLGHRCIAMVGGTDQTSTGRDRYQGYVNALRKANIEVDPDLRIPGPRSKQGGFEAAVHLLSLPQKPTAVVCWNDLVAIGMMNGIARAGLVPGVDISVTGYDDLEEASIATPALTTVWNGQAEVGRSAARALLDKLSGSHEPDGIHLIKPEMRIRQSTGPLRVTEGHHHHHH
4. MSIEEEDTNKITCTQDFLHQYFVTERVSIQFGLNNKTVKRINKDEFDKAVNCIMSWTNYPKPGLKRTASTYLLSNSFKKSATVSLPFILGDPVCMPKRVESNNNDTCLLYSDTLYDDPLIQRNDQAGDEIEDEFSFTLLRSEVNEIRPISSSSTAQILQSDYSALMYERQASNGSIFQFSSP

1. not soluble
2. soluble
3. soluble
4. not soluble

The reported measurements were obtained from the DeepSol protein solubility set.
